assay_text: yeast display, Sf9 membrane polyspecificity reagent, FACS + sequencing; frameworks hold sequencing errors
metric: polyreactivity (PSR sort gate)

QVHLVESGGGLVQAGGSLRLSCAASGSTFAGNTMGWYRQAPGKERELVASITSDGSTDYADSVKGRFTISRDNAKNTVYLQMNSLKPEDTAVYYCAIARGLSKMDSWGQGTQVTVSS low polyreactivity
QVQLVESGAGLDQAGGSLRLSSAASGNTFQYYAMGSYRQAAGKERELVASISYRGGRTYYADSVKGRFTISRDNAKYTVYLQMNSLKPADTAVYYCAKSKYTNVLYNYWGQGTQVTVSS high polyreactivity
QDQLVESGGGLVQAGGSLRLSCAASGSTFHLYAMGWYRQAPGKERELVAAITRRGSDTYYADSVKGRFTISRDNAKNTVYLQMNSLKPEDTAVYYCAARDRHPVWGQGTQVTVSS low polyreactivity
QVQLVESGGGLVQAGGSLRLSCAASGSIFEAYVMGWYRQAPGKQRELVAAITTGGGSTYYADSVKWRFTISRDNAKNTVYLQMNSLKPEDTAVYYCGKDYWFGYEYWGQGTQVTVSS low polyreactivity
QVQLVESCGGLVQAGGSLRLSCAASGSIFPPYAMGWYRQAPGKERELVATITIRGGSTYYADSVKGRFTISRDNAKNTVYLQMNSLKPEDTAVYYCAADYTKYYRRYYYWGQGTQVTVSS high polyreactivity
QVQLVESGGGLDQAGGSLRLSSAASGLTFVTYAMGWYRQAPGTERELVAAISYSGGSTYYADSVKGRFTISRDNAKNTVYLQMNSLKPEDTAVYYCNARSPQPDGRPPYNYWGQGTQVTVSS high polyreactivity
QVQLVESGGGLVQAGGSLRLSCAASGRTLSLYAMGWYRQAPGKERELVATISKSGGSTDYADSVKGRFTISRDNAKNTVYLQMNSLKPEDTAVYYCAADANSWFTSYQVYGSEFDYWGQGTQVTVSS low polyreactivity
QVQLVESGGGLVQAGGSLRLSCAASGYTFPQYAMRWYRQAPGKERELVAAITRRGGSTYYADSVKGRFTISRDNAKNTVYLQMNSLNPEDTAVYYGSARYYWGQGTQVTVSS high polyreactivity
QVQLVESGGGLVQAGVSLRLSCAASGSIFGRYAMGWYRQAPGKERELVAAINDDSGRTYYADSVKGRFTISRDNAKNTVYLQKNSLKPEDTAVYYCATGRQSEYDYWGQGTQVTVSS high polyreactivity
QVQLVESGGGLVQAGGSLRLSCAASGSIFEGYSMGWYRQAPAKERELVARITSDDDSTYYADSVKGRFTISRDNAKNTVYLQMNSLKPEDSAVYYCNADYYWTSLAMDSWGQGTQVTVSS low polyreactivity
QVQLVESGGGLVQAGGSLRLSCAASGSILEGNGMGWYRQAPGKERELVASITRSGGSTYYSDSVKGRFTISRDNAKNTVYLQMNSLKPEDTAVYYCAAKGSTYGLTIRWYPYLHGYNYWGQGTQVTVSS low polyreactivity

---

assay_text: yeast display, Sf9 membrane polyspecificity reagent, FACS + sequencing; frameworks hold sequencing errors
metric: polyreactivity (PSR sort gate)

QVQLVESGGGLVQAGCSLRLSCDASGSIYKYYSMGWYRQAPGKERELVAAISKNGGSTYYADSVKGRFTISRDNAKYTVYLQMNSLKPEDTAVYYCAAEEGYRWVRYNYWGQGTQVTVSS high polyreactivity
QVQLVESGGGLVQAGGSLRLSCAASGIIFPYYAMGWYRQAPGKERELVAAINSSGGSTFYAHSVKGRFTISRDNAKNTVYLQMNSLKPVVTAVYYCAAETLRYRWSLYYWGQGTQVTVSS high polyreactivity
QVQHVESGGGLVQAGGSLRLSCAASGGTFRPYARGWSIQAPGKERELVAAISYTGSTYYADSVKGRFTISRDNAKYTVYLQMNSLKPEDTAVYYCAKDFWYPPRFDYWGQGTQVTVSS low polyreactivity
QVQLVESGGGLVQAGGSLRLSCAASGSIFGGYTMGWYRQAPGKERELVAGITISGGSTYYADSVKGRFTISRDNAKNTVYLQMNSLKPEDTAVYYCAAVSFVVSSWGYGYWGQGTQVTVSS low polyreactivity
QVQLVESGARLVQAGGSLRLRCAPSGSIFDGYAMGWYRQAPGKEREFVAAISKGGTRTYYADSVKGRFTISRDNAKNTVYLQMNSLIPEDSAVFYCNAYYRREPDDGDYDYWGQGTQVTVSS high polyreactivity
QVQLVESGGGLVQAGGSLRLSCAASGRIFKTYAMGWYRPAPGKERELVAAITASGGRTYYADSVKGRFTISRDNAKNTVYLQMNSLKPEDTAVYYCAKRPSYYARNSAYAYLSYGYWGQGTQVTVSS low polyreactivity
QVQLVESGGGLVQAGGSLRLSCAASGSIFLYYTMGWYRQEPGKERELVAAITWSGASTYYADSVKGRFTISRDNAKNTVYLQMNSLKPEDTAVYYCATRYRYRYWGQGTQVTVSS high polyreactivity
QVQLVESGGGLVQAAGSLRISCAASGLIFNYYAMGWYRQAPGKERELVAAISKDGGSTYYADSVKGRFTISRDNAKNTVYLQMNSLKPEDTADFYCAARTFRISRMDYRGQGTQVTVSS high polyreactivity
QVQLVESGGGLVQAGGSLRLSCAASGSILKGYALGWYRQAPGKERELVAAITSSGGRTYYADSVKGRFTISRDNAKNTVYLQMNSLKPEDTAVYYCNALGGQWARYDYWGQGTQVTVSS high polyreactivity
QVQLVESGGGLVQAGGSLRLSCAASGRTFSWYAMGWYRQAPGKEREFVATISASGGSTYYADSVKGRFTISRDNAKNTVYLQMNSLKPEDTAVYYCAADRSIRFFSPANYDYWGQGTQVTVSS high polyreactivity
QVQLVESGGGLVQAGGSLRLSCAASGSTFSAYAMGWYRQAPGKERELVATITSDGSTNYADSVKGRFTISRDNAKNTVYLQMNSLKPEDTAVYYCAAKRQYKRSRMYYWGQGTQVTVSS high polyreactivity
QVQLVESGGGLVQAGGSLRLSCAASGRIFPYNVMGWYRQAPGKERELVAAISWSGGRTYYADSVKGRFTISRDNAKKTVYLQMNSLKPEDTAVYYCNTRTLVAMGYWGQGTEVTVSS high polyreactivity
QVQLVESGGGFVQARGSLRLSCAACGRTYFPNAMGWYRQAPGKERELVAAITTSGGITYYADSVKGRFTISRDNAKNTVYLQMNSLKPEDTAVYYCATEWRTTGYRYYYWGQGTQVTVSS high polyreactivity
QVQLVESGGGLVQAGGSLSLSCAASGSIFGIYAMGWYRQAAGKDRELVATINSRGTTNYADSVKGRFTISRYNAKNTVYLQMNSLKPEDTAVYYCAARFSTYRGKLKGYEYWGQGTQVTVSS high polyreactivity
QVQLVESGGGLVQAGGSLRLSCAASGRTFVPYAMGWYRQAPGKERELVAAITWSGGRTRYADSVKGRFTISRDNAKNTVFLQMNSLKPEDTAVYYCARYYWLYSSSYDYWGQGTQVTVSS high polyreactivity
QVQLVESGGGLVQAGGSLRLSCAASGRIFYSYAMGWYRQAPGKERELVAAITVSGGSTFYADSVKGRFTISRDNAKNTVYLQMNSLKPEDTAVYYCAATRFSQYDWGQGTQVTVSS high polyreactivity
QVQLVESGGGLVQAGGSLRLSCAASGSTFWKYVIGWYRQEPGKERELVAAITSRGGSTYADSVKGRFTISRDNAKNTVYLQMNSLKPEDTAVYYCAATKFWYYGYDYWGQGTQVTVSS low polyreactivity
QVQLVESGGGLVQAGGSLRLSCAASGSTSFLYALGWYRQAPGKERELVAAISRSGGTTYYADSVKGRFTISRDNAKNTVYLQMNSLKPEDTAVYYCNAVGPKRYDYWGQGTQVTVSS high polyreactivity
QVQLVESGGGLVQAGGSLRLSCAASGSTIPTNAMGWYSQAPGKERELVAAITSTGSTYADSVKGRFTISRDNAKNTDYLQMNSLKPEDTAVYYCAADTQWTTPYDYWGQGTPVTVSS low polyreactivity
QVQLVESGGGLVQAGGSLRLSCAASGRTFYIYAMGWYRQAPGNERELVADISSSDDSTYYADSEKGRFTISRDNAKNTVYLQMNSLKPEDTAVYYCAAELYYFFDEHYYWGQGTQVTVSS low polyreactivity
QVQLVESGGCLVQAGGSLRLSCAASGRIFGYYARGWYRQSAGKERELVAAITRNGGSTYYADSVKGRFTISRDNAKNTVYIQMISLKPVDTAVYYCYATKGGGRGYWCQGTQVTVSS high polyreactivity
